Recorded IC50 for the following compounds
# Study System: gelatinase A (MMP-2) (Homo sapiens, UniProt P08253)
# Sequence (P08253 110-660): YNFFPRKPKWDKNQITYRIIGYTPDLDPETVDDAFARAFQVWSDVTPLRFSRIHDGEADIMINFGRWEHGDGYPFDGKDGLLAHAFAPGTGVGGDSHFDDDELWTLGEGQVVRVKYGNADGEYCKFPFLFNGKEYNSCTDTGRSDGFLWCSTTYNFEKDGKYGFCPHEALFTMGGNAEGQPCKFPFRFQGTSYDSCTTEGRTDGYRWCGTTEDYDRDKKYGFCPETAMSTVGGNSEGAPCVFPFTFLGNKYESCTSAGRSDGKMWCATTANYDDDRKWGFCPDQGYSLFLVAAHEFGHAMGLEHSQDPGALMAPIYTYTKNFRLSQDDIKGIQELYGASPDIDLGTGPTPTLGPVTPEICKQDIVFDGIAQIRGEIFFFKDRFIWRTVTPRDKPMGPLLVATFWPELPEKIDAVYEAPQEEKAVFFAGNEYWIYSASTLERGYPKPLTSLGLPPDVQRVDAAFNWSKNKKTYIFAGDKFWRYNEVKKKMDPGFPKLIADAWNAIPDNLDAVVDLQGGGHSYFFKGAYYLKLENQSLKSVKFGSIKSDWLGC
# Test: MMP-2 enzyme inhibition assay (coumarin-labelled peptide substrate)
# Format: biochemical
# Measurement Parameters: read-out: IC50 MMP2

INPUT: Suppose we examine the compound CC(C)(C(CS(=O)(=O)N1CCc2ccccc2C1)N(O)C=O)N1CCOCC1 (stereo not shown) ; what IC50 value has been reported?
OUTPUT: > 5 µM

INPUT: And what about the compound CC(C)(C)c1ccc2c(c1)CN(S(=O)(=O)CC(COCc1ccccc1)N(O)C=O)CC2 (stereo not shown) ?
OUTPUT: > 5 µM

INPUT: And what about the compound COc1cc2c(cc1OC)CN(S(=O)(=O)CC(C1CC1C(=O)O)N(O)C=O)CC2 (stereo not shown) ?
OUTPUT: > 5 µM

INPUT: And what about the compound CC(C)(C)OC(=O)N1CCC[C@@H]1[C@H](CS(=O)(=O)N1CCc2cc(Cl)c(Cl)cc2C1)N(O)C=O (racemic) ?
OUTPUT: ≥ 5 µM

* * *

# Study System: 92 kDa gelatinase (MMP-9) (Homo sapiens, UniProt P14780)
# Sequence (P14780 107-707 limits assumed): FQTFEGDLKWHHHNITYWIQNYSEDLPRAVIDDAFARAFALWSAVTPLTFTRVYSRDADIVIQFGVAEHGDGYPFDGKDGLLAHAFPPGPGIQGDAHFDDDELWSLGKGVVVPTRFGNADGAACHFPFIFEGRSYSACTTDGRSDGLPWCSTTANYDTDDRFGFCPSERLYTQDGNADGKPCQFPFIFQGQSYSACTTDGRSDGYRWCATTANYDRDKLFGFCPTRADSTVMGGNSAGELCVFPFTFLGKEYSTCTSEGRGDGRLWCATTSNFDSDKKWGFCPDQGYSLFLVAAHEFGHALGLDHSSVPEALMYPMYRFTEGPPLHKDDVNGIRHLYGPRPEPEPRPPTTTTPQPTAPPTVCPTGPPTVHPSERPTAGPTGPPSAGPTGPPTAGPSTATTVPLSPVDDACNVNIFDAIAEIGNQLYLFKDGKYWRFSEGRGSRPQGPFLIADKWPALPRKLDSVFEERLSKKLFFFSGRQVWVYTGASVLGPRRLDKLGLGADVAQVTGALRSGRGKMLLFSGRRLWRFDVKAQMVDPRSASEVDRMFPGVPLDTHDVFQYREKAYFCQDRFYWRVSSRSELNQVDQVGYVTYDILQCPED
# Test: MMP-9 enzyme inhibition assay (coumarin-labeled peptide substrate)
# Format: biochemical
# Measurement Parameters: @ 5 μM; read-out: percentage inhibition MMP9
Reported Property: inhibition at 5 µM (%)

CCCCCC(C)(C)C(CS(=O)(=O)N1CCc2cc(C(F)(F)F)ccc2C1)N(O)C=O (stereo not drawn) [Example 63] :: 7
O=CN(O)C(CS(=O)(=O)N1CCc2ccc(-c3ccsc3)cc2C1)C1CCCC1 (stereo not drawn) [Example 68] :: 31
O=CN(O)C(CS(=O)(=O)N1CCc2ccc(Cl)cc2C1)C1CC1 (stereo not drawn) [Example 73] :: 5

(1) CC(C)(C)C(CS(=O)(=O)N1CCc2ccc(Cl)cc2C1)N(O)C=O (stereo not drawn) [Example 65]
(2) O=CN(O)C(CS(=O)(=O)N1CCc2cc(C(F)(F)F)ccc2C1)C1CC1 (stereo not drawn) [Example 74]
(3) O=CN(O)C(CS(=O)(=O)N1CCc2ccc(F)cc2C1)C1CCN(Cc2ccccc2)CC1 (stereo not drawn) [Example 53]
(4) O=CN(O)C(CCO)CS(=O)(=O)N1CCc2ccc(Cl)cc2C1 (stereo not drawn) [Example 48]
(5) CC(C)C(CS(=O)(=O)N1CCc2cc(Cl)c(Cl)cc2C1)N(O)C=O (stereo not drawn) [Example 39]
INPUT: Endpoint returns the given molecules ordered by ascending inhibition at 5 µM. Record the ranking as a list of labels in the requested order.
OUTPUT: 3, 4, 1, 2, 5
(3: 5%, 4: 8%, 1: 13%, 2: 32%, 5: 47%)

* * *

# Study System: collagenase (MMP-1) (Homo sapiens, UniProt P03956)
# Sequence (P03956 100-469): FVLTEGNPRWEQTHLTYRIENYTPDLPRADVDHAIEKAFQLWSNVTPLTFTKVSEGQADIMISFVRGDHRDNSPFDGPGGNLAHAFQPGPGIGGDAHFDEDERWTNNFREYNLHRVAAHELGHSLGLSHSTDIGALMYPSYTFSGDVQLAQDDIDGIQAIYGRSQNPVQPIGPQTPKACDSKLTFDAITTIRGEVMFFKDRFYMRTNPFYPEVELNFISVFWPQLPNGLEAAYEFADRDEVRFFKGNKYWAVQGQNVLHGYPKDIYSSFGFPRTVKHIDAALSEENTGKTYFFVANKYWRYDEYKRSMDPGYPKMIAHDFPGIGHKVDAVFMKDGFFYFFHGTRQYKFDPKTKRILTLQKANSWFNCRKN
# Test: MMP-1 enzyme inhibition assay (coumarin-labelled peptide substrate)
# Type: biochemical
# Measurement Parameters: @ 5 μM; read-out: percentage inhibition MMP1
Reported Property: inhibition at 5 µM (%)

(P) O=CN(O)C(CCC(F)(F)F)CS(=O)(=O)N1CCc2ccc(Cl)cc2C1 (stereo not drawn)
(Q) O=CN(O)C(CCO)CS(=O)(=O)N1CCc2ccc(Cl)cc2C1 (stereo not drawn)
(R) CC(C)c1ccc2c(c1)CCN(S(=O)(=O)CC(C1CC1)N(O)C=O)C2 (stereo not drawn)
INPUT: Put the molecules in ascending order of inhibition at 5 µM. Record the ranking as a list of labels in the requested order.
OUTPUT: R, Q, P

* * *

Test system human ADAM17 (TACE) (Homo sapiens, UniProt P78536), IC50 listed for each of the compounds.
Reported Property: IC50 (nM)

O=CN(O)C(CS(=O)(=O)N1CCc2cc(C(F)(F)F)ccc2C1)[C@H]1CCCO1 (stereo partly drawn) :: 933

(a) O=CN(O)[C@H](CS(=O)(=O)N1CCc2ccc(C(F)(F)F)cc2C1)[C@H]1CCCO1
(b) O=CN(O)C(CCc1ccccc1)CS(=O)(=O)N1Cc2ccccc2C1 (stereo not drawn)
(c) COc1cc2c(cc1OC)CN(S(=O)(=O)CC(CCc1ccccc1)N(O)C=O)CC2 (stereo not drawn)
(d) O=CN(O)C(CS(=O)(=O)N1CCc2ccc(Cl)cc2C1)C1CCCC1 (stereo not drawn)
(e) CC(C)CC(CS(=O)(=O)N1CCc2ccc(Br)cc2C1)N(O)C=O (stereo not drawn)
INPUT: Task field, ranking: reported IC50, descending order. Record the ranking as a list of labels in the requested order.
OUTPUT: c, a, b, e, d
(c: 1220 nM, a: 506 nM, b: 280 nM, e: 157 nM, d: 56 nM)

* * *

# Study System: 92 kDa gelatinase (MMP-9) (Homo sapiens)
# Test: MMP-9 enzyme inhibition assay (coumarin-labeled peptide substrate)
# Format: biochemical
# Measurement Parameters: @ 5 μM; read-out: percentage inhibition MMP9
Reported Property: inhibition at 5 µM (%)

Please review the following examples before continuing.
O=CN(O)C(COCc1ccccc1)CS(=O)(=O)N1CCc2ccc(C(F)(F)F)cc2C1 (stereo not shown) [Example 59] :: 32
O=CN(O)C(CO)CS(=O)(=O)N1CCc2cc(Cl)c(Cl)cc2C1 (stereo not shown) [Example 49] :: 43

(a) CCC(CC)C(CS(=O)(=O)N1CCc2cc(C(C)C)ccc2C1)N(O)C=O (stereo not shown) [Example 35]
(b) CCCOc1ccc2c(c1)CN(S(=O)(=O)CC(CC(C)(C)C)N(O)C=O)CC2 (stereo not shown) [Example 40]
INPUT: Task for the reader: decide whether a or b has the larger inhibition at 5 µM. Select an item and report its label.
OUTPUT: a
(a: 43%, b: 11%)

* * *

# Study System: UniProt:P78536
# Test: TACE enzyme inhibition assay
# Assay type: biochemical
Recorded IC50 for the following molecules

Please review the following examples before continuing.
O=CN(O)C(CS(=O)(=O)N1CCc2ccc(C(F)(F)F)cc2C1)C1CCCC1 (stereo not drawn) :: > 5 µM
O=CN(O)C(CS(=O)(=O)N1CCc2cc(Cl)c(Cl)cc2C1)C1CCCC1 (stereo not drawn) :: 0.229 µM
O=CN(O)[C@H](CS(=O)(=O)N1Cc2ccc(F)cc2C1)[C@H]1CCCO1 :: 0.277 µM

INPUT: Suppose we examine the molecule CC(C)(Cc1ccccc1)C(CS(=O)(=O)N1CCc2cc(C(F)(F)F)ccc2C1)N(O)C=O (stereo not drawn) ; what IC50 value has been reported?
OUTPUT: > 5 µM

INPUT: And what about the molecule CCC#CCC(C)(C)C(CS(=O)(=O)N1CCc2cc(C(F)(F)F)ccc2C1)N(O)C=O (stereo not drawn) ?
OUTPUT: > 5 µM

INPUT: And what about the molecule O=CN(O)C(CS(=O)(=O)N1Cc2ccc(F)cc2C1)C1CCCC1 (stereo not drawn) ?
OUTPUT: > 5 µM
